tested on: Staphylococcus aureus subsp. aureus (ATCC29213); experiment: MIC, broth microdilution (CLSI), Staphylococcus aureus subsp. aureus ATCC29213; format: cell-based; conditions: ATCC29213, Table 15, read-out: S. aureus ("wound") (MIC)
Structures can show the parent of a compound that is named as a salt.
Value type: MIC (µg/mL)

>>> measured_result("O=C(/C=C/c1ccc(F)cc1)Nc1cc(C(F)(F)F)cc2c1Nc1ccccc1S2")
1
>>> measured_result("CC1CCCN(c2ccc3c(c2)Sc2cc(C(F)(F)F)cc(NC(=O)C4CCCC(N)C4)c2N3)C1.Cl.Cl (stereo not shown)")
16
>>> measured_result("NCCCN1c2ccc(N3CCNCC3)cc2Sc2cc(C(F)(F)F)ccc21 [compound 265, hydrochloride]")
16
>>> measured_result("FC(F)(F)c1cc(NC2CCNCC2)c2c(c1)SC1CCCCC1N2 (stereo not shown)")
16
>>> measured_result("NCCCN1c2ccncc2Sc2cc(-c3cc4ccccc4[nH]3)ccc21")
2
>>> measured_result("Cl.Cl.N#Cc1ccc2c(c1)Sc1cc(C(F)(F)F)cc(NC(=O)CCNCCN)c1N2")
16
>>> measured_result("CC(C)NCCCN1c2ccccc2Sc2cc(-c3cc4ccccc4[nH]3)ccc21")
4
>>> measured_result("CCOC(=O)c1ccc2c(c1)Sc1cc(N3CCN(CCN)CC3)ccc1N2CCCN")
128
>>> measured_result("NC1CCCC(C(=O)Nc2cc(C(F)(F)F)cc3c2Nc2ncccc2S3)C1 (stereo not shown)")
64
>>> measured_result("Cl.Cl.Cl.NCCNCC(=O)CNc1cc(C(F)(F)F)cc2c1Nc1ccc(N3CCCC3)cc1S2")
64
>>> measured_result("CN(C)CCCN1c2ccccc2Sc2cc(-c3cc4ccccc4[nH]3)ccc21")
3
>>> measured_result("Cl.NCCNCCCNc1cc(C(F)(F)F)cc2c1Nc1ccc(N3CCCC3)cc1S2")
4
>>> measured_result("CC1CC(C)N(c2ccc3c(c2)Sc2cc(C(F)(F)F)cc(NC4CCN(CCN)CC4)c2N3)C1.Cl.Cl (stereo not shown)")
1
>>> measured_result("Cl.Cl.NCCN1CCC(Nc2cc(C(F)(F)F)cc3c2Nc2ccc(N4CCCCC4)cc2S3)CC1")
4
>>> measured_result("NCCN(CCN)CCN1CCC(Nc2cc(C(F)(F)F)cc3c2Nc2ccccc2S3)CC1")
8
>>> measured_result("NCCCN1c2ccc(C(=O)O)cc2Sc2cc(-c3cc4ccccc4[nH]3)ccc21")
32

###

MIC: recorded values
tested on: Escherichia coli (ATCC25922); experiment: MIC, broth microdilution (CLSI), Escherichia coli ATCC25922; settings: ATCC25922, read-out: E. coli MIC, Table 15, NI = No inhibition
Value type: MIC (µg/mL)

>>> measured_result("N#Cc1ccc2c(c1)Sc1cc(C(F)(F)F)cc(NC3CCN(CCN)CC3)c1N2")
3
>>> measured_result("Cl.NCCOCCCNc1cc(C(F)(F)F)cc2c1Nc1ccc(Br)cc1S2")
16
>>> measured_result("N[C@@H]1CCC[C@@H](CNc2cc(C(F)(F)F)cc3c2Nc2ccccc2S3)C1")
13
>>> measured_result("O=C(Nc1cc(C(F)(F)F)cc2c1Nc1ccccc1S2)[C@H]1CCCNC1")
64
>>> measured_result("NC1CCCC(C(=O)Nc2cc(C(F)(F)F)cc3c2Nc2ccncc2S3)C1 (centres unmarked)")
128
>>> measured_result("N[C@H]1CCC[C@H](CNc2cc(C(F)(F)F)cc3c2Nc2ccccc2S3)C1.O=C(O)C(F)(F)F")
16
>>> measured_result("NC1CCCC(CC(=O)Nc2cc(C(F)(F)F)cc3c2Nc2ccccc2S3)C1.O=C(O)C(F)(F)F (centres unmarked)")
34
>>> measured_result("Cc1cc(NC2CCN(CCN)CC2)c2c(c1)Sc1cc(Br)ccc1N2.Cl")
64
>>> measured_result("NCCN1CCCC(C(=O)Nc2cc(C(F)(F)F)cc3c2Nc2ccccc2S3)C1 (centres unmarked)")
14
>>> measured_result("NCCN(CCN)CCN1CCC(Nc2cc(C(F)(F)F)cc3c2Nc2ccccc2S3)CC1")
8
>>> measured_result("NC1CCCC(C(=O)Nc2cc(C(F)(F)F)cc3c2Nc2ccc(N4CCNCC4)cc2S3)C1 (centres unmarked)")
32
>>> measured_result("Cl.NCCN1CCC(Nc2cc(C(F)(F)F)cc3c2Nc2ccc(C4=CCCC4)cc2S3)CC1")
64
>>> measured_result("O=C(Nc1cc(C(F)(F)F)cc2c1Nc1ccccc1S2)C1CNC1")
23
>>> measured_result("N[C@H]1CCC[C@@H](CNc2cc(C(F)(F)F)cc3c2Nc2ccccc2S3)C1")
25
